- subject.of.test: PI 3-kinase alpha (Homo sapiens, UniProt P42336)
- Sequence (P42336 whole entry): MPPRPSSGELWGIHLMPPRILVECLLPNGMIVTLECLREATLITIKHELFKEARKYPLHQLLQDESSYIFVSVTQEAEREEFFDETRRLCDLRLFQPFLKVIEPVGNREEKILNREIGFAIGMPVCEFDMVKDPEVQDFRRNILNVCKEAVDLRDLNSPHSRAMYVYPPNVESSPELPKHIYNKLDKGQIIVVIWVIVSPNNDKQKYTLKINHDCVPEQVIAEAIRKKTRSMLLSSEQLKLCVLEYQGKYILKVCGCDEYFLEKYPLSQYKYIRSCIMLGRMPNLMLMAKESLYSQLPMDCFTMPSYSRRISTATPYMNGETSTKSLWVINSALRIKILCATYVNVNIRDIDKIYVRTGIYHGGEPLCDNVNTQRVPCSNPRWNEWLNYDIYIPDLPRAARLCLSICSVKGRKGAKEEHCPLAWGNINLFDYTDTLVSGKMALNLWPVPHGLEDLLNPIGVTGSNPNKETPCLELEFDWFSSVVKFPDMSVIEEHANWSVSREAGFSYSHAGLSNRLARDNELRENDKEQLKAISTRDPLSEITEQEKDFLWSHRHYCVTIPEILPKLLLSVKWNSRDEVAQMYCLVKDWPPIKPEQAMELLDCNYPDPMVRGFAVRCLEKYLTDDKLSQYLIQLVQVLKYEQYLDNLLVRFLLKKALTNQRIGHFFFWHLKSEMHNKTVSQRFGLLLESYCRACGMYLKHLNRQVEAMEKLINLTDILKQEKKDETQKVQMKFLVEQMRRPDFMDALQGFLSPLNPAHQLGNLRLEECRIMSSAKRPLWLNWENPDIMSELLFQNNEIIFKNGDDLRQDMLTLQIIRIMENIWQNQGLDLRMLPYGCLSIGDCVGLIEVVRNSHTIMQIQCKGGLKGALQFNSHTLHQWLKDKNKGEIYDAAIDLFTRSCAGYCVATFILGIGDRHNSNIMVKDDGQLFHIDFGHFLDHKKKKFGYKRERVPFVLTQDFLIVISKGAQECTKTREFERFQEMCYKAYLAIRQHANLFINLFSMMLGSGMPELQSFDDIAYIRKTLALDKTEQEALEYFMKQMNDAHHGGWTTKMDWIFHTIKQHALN
- assay.summary: Kinase Glo Luminescent Kinase Assay (Kglo), assay A
- Type: biochemical
- cond: read-out: Assay A PI3Kα IC50
readout: log10 of IC50 (log10 of the value in nM)
Please keep in mind that the values are log10 of IC50 expressed in nM.

Use these answered entries as a reference point.
Inquiry: Find log10 of IC50 (PI 3-kinase alpha (Homo sapiens, UniProt P42336)) for the entry Cc1ccc(S(=O)(=O)NC2CC3(CC(O)C3)C2)cc1-c1cnc(N)c(-n2cncn2)n1 (single isomer, unassigned) [Example 70a]
Reply text: 2.04

Inquiry: Find log10 of IC50 (PI 3-kinase alpha (Homo sapiens, UniProt P42336)) for the entry Cc1nnc(-c2nc(-c3cc(S(=O)(=O)NCC(C)(C)O)ccc3C)cnc2N)o1 [Example 90]
Reply text: 3.32

Batch lookup, log10 of IC50 per entry.
1. Cc1cc(-c2nc(-c3cc(S(=O)(=O)NCC4CCCCO4)ccc3C)cnc2N)ccn1 (stereo not shown) [Example 129.16]
2. Cc1ncc(-c2nc(-c3cc(S(=O)(=O)NC4CCOCC4)ccc3C)cnc2N)s1 [Example 45.3]
3. Cc1cc(-c2nc(-c3cc(S(=O)(=O)N[C@@H]4CCC[C@H]4N)ccc3C)cnc2N)ccn1 [Example 129.39]
4. Cc1ccc(S(=O)(=O)NCC2CN(C)CCO2)cc1-c1cnc(N)c(-c2cn(C)nc2C)n1 (stereo not shown) [Example 128.5]

Reply text:
1. 2.80
2. 1.60
3. 2.86
4. 3.36
